- measured-target: T1, human PD-L1-his taq protein (human, UniProt Q9NZQ7 19-239, limits assumed)
- T1 construct: also called recombinant PD-L1 protein; recombinant human PD-L1; not shown: his tag
- T1 sequence (Q9NZQ7 19-239 limits assumed): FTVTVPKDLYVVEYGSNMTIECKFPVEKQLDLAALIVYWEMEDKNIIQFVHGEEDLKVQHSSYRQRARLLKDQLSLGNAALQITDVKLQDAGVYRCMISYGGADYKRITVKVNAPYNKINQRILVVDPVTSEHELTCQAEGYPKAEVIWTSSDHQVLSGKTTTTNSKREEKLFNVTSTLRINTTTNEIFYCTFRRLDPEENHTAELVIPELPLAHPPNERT
- assay: SPR Biacore T200, antibody captured, PD-L1-his injected
readout-kind: kon (M⁻¹ s⁻¹)
Give bare numbers, in M⁻¹ s⁻¹.

Parameters: items (list). Returns: kon for each item.
1. Hu1210-36 (antibody, V domains shown, Hu1210 VH.5d (printed 'VH.Sd') x Vk.2; human gamma 1 / kappa constant domains) VH: EVQLVESGGGLVQPGGSLRLSCAASGFTFSSYDMSWVRQTPEKSLEWVATISDGGGYIYYSDSVKGRFTISRDNAKNNLYLQMNSLRAEDTAVYICAREFGKRYALDYWGQGTLVTVSS VL: DIQMTQSPSSLSASVGDRVTITCKASQDVTPAVAWYQQKPGKAPKLLIYSTSSRYTGVPSRFSGSGSGTDFTLTISSLQPEDFATYYCQQHYTTPLTFGQGTKLEIKR
2. Hu1210-28 (antibody, V domains shown, Hu1210 VH.5a x Vk.2a; human gamma 1 / kappa constant domains) VH: EVQLVESGGGLVQPGGSLRLSCAASGFTFSSYDMSWVRQAPGKGLEWVATISDGGGYIYYSDSVKGRFTISRDNAKNSLYLQMNSLRAEDTAVYICAREFGKRYALDYWGQGTLVTVSS VL: DIQMTQSPSSLSASVGDRVTITCKASQDVTPAVAWYQQKPGKAPKLLIYSTSSRYTGVPDRFTGSGSGTDFTLTISSLQPEDFATYYCQQHYTTPLTFGQGTKLEIKR
3. Hu1210-31 (antibody, V domains shown, Hu1210 VH.5b x Vk.2; human gamma 1 / kappa constant domains) VH: EVQLVESGGGLVQPGGSLRLSCAASGFTFSSYDMSWVRQAPGKGLEWVATISDGGGYIYYSDSVKGRFTISRDNAKNSLYLQMNSLRAEDTAVYICAREFGKRYALDYWGQGTTVTVSS VL: DIQMTQSPSSLSASVGDRVTITCKASQDVTPAVAWYQQKPGKAPKLLIYSTSSRYTGVPSRFSGSGSGTDFTLTISSLQPEDFATYYCQQHYTTPLTFGQGTKLEIKR

result:
1: 146000; 2: 129000; 3: 149000

Attribution: patent US20220363763A1
